# system-name: Coagulation factor X (Oryctolagus cuniculus)
# Sequence (O19045 41-180 limits assumed): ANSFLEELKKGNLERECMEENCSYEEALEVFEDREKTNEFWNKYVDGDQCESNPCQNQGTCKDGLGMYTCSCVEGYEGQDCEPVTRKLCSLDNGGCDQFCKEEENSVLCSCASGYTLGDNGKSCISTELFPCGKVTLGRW
# Sequence (O19045 233-490 limits assumed): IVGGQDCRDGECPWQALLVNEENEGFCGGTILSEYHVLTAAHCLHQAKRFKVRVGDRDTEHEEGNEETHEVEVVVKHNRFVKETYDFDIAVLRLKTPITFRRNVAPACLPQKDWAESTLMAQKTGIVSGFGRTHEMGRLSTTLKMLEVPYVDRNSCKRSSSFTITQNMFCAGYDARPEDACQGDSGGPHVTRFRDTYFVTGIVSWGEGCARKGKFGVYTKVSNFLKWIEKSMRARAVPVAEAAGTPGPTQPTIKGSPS
# test: Inhibition of F10a in rabbit plasma assessed as doubling of prothombin time
pIC50: −log10 of the molar value.
measurement-label: pIC50

The cases that follow already have their pIC50 on record.
molecule | system-name | result
CCN(CC)Cc1cccn1-c1ccc(N2C[C@H](CNC(=O)c3ccc(Cl)s3)OC2=O)cc1 | Coagulation factor X (Oryctolagus cuniculus) | 6.34
CN1CCN(Cc2csc(-c3ccc(N4C[C@H](CNC(=O)c5ccc(Cl)s5)OC4=O)cc3)n2)CC1 | Coagulation factor X (Oryctolagus cuniculus) | 5.37
O=C(NC[C@H]1CN(c2cc(F)c(-n3cccc3CN3CCCC3)c(F)c2)C(=O)O1)c1ccc(Cl)s1 | Coagulation factor X (Oryctolagus cuniculus) | 5.53

I: O=C(NC[C@H]1CN(c2ccc(-n3cccc3CN3CCCC3)cc2)C(=O)O1)c1ccc(Cl)s1
II: O=C(NC[C@H]1CN(c2ccc(-c3nc(CN4CCCC4)cs3)cc2)C(=O)O1)c1ccc(Cl)s1
III: CN(C)Cc1csc(-c2ccc(N3C[C@H](CNC(=O)c4ccc(Cl)s4)OC3=O)cc2)n1
IV: O=C(NC[C@H]1CN(c2ccc(N3CCOCC3=O)cc2)C(=O)O1)c1ccc(Cl)s1
V: CC1CCN(Cc2cc3ccccc3n2-c2ccc(N3C[C@H](CNC(=O)c4ccc(Cl)s4)OC3=O)cc2)CC1
// query Would you mind ranking these compounds by ascending pIC50? Give the labels in the order specified.
// result V, II, I, III, IV

* * *

# system-name: Coagulation factor X (Homo sapiens)
# Sequence (P00742 41-179 limits assumed): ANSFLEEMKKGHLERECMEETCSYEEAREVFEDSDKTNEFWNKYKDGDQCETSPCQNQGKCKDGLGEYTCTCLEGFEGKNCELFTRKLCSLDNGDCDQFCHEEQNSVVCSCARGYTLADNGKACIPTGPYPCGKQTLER
# Sequence (P00742 235-488 limits assumed): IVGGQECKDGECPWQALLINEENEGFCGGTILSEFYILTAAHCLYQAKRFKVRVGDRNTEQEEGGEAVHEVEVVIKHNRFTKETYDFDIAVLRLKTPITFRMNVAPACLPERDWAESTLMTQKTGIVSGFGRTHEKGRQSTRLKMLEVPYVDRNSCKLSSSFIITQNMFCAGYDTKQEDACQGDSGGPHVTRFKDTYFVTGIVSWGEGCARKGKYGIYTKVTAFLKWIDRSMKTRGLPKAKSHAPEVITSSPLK
# test: Inhibition of F10a in human plasma assessed as doubling of activated partial thromboplastin time
pIC50: −log10 of the molar value.
measurement-label: pIC50

molecule | system-name | result
CN(C)Cc1cccn1-c1cc(F)c(N2C[C@H](CNC(=O)c3ccc(Cl)s3)OC2=O)c(F)c1 | Coagulation factor X (Homo sapiens) | 5.64
CCN(CC)Cc1cccn1-c1ccc(N2C[C@H](CNC(=O)c3ccc(Cl)s3)OC2=O)cc1 | Coagulation factor X (Homo sapiens) | 6.52
CNCc1csc(-c2ccc(N3C[C@H](CNC(=O)c4ccc(Cl)s4)OC3=O)cc2)n1 | Coagulation factor X (Homo sapiens) | 5.73
CC1CCN(Cc2cccn2-c2ccc(N3C[C@H](CNC(=O)c4ccc(Cl)s4)OC3=O)cc2)CC1 | Coagulation factor X (Homo sapiens) | 5.45
O=C(NC[C@H]1CN(c2ccc(-n3cccc3CN3CCCCC3)cc2)C(=O)O1)c1ccc(Cl)s1 | Coagulation factor X (Homo sapiens) | 5.55
O=C(NC[C@H]1CN(c2cc(F)c(-n3cccc3CN3CCCC3)c(F)c2)C(=O)O1)c1ccc(Cl)s1 | Coagulation factor X (Homo sapiens) | 5.51
O=C(NC[C@H]1CN(c2ccc(-n3c(CN4CCOCC4)cc4ccccc43)cc2)C(=O)O1)c1ccc(Cl)s1 | Coagulation factor X (Homo sapiens) | 4.95
CN(C)Cc1cc2ccccc2n1-c1ccc(N2C[C@H](CNC(=O)c3ccc(Cl)s3)OC2=O)cc1 | Coagulation factor X (Homo sapiens) | 5.22
CN(C)Cc1cccn1-c1ccc(N2C[C@H](CNC(=O)c3ccc(Cl)s3)OC2=O)cc1 | Coagulation factor X (Homo sapiens) | 5.92
O=C(NC[C@H]1CN(c2ccc(-n3cccc3CN3CCOCC3)cc2)C(=O)O1)c1ccc(Cl)s1 | Coagulation factor X (Homo sapiens) | 5.48

A: O=C(NC[C@H]1CN(c2ccc(-c3nc(CN4CCCCC4)cs3)cc2)C(=O)O1)c1ccc(Cl)s1
B: O=C(NC[C@H]1CN(c2ccc(-n3cccc3CN3CCC3)cc2)C(=O)O1)c1ccc(Cl)s1
// query Hi, I'm comparing two records. Which one has the lower pIC50, A or B ? Please indicate the selected item by its label.
// result A
